Each recorded value in this set is attributed to the RNAGym collection of RNA variant scans (doi:10.1038/s41586-018-0170-7).

This section presents variants with their documented yeast fitness (ln) values.
B1: tRNA (parent)
chain: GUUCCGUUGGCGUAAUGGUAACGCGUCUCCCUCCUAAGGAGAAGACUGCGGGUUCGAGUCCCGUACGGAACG

Variants of: B1
Assay: yeast fitness, log relative to wild type (ln ratio); higher = fitter; tRNA-Arg(CCU), competitive growth, 37 C, 1 M NaCl
Please give only the number in your answer, with no unit.

>>> df
                                   residues        test_readout  value_reported
0  GCUCCAUUGGCGUAAUGGUAACGCGUCUCCCUCCUAAGGAGACGACUGCGGGUUCGAGUCCCGUAUGGGGUG [U2C G6A A43C C66U A69G A70G C71U]  yeast fitness (ln)          -0.072
1  GUUCCUUUGGCGUAAUGGUAACGCGUCUCCCUCCUAAGGAGACGAUUGCGGGUUCGAGUCCCGUAUGGAGUG [G6U A43C C46U C66U A70G C71U]  yeast fitness (ln)          -0.295
2  GCUCCUUUGGCGUAAUGGUAACGCGUCUCCCUCCUAAGGAGAAGACUGCGGGUUCGAGUCCCGUAUGGGGCG [U2C G6U C66U A69G A70G]  yeast fitness (ln)          -0.103
3  GCUCCGUUGGCGUAAUGGUAACGCGUUUCCCUCCUAAGGAGAAGACUGCGGGUUCGAGUCCCGUACGGGUUG [U2C C27U A69G A70U C71U]  yeast fitness (ln)          -0.278

Query: yeast fitness (ln); subject: AUUCCAUUGGCGUAAUGGUAACGCGUCUCCCUCCUAAGGAGAAGAUUGCGGGUUCGAGUCCCGUACGGAGCG [G1A G6A C46U A70G]
-0.0807

Here is the next variant: AUUCCUUUGGCGUAAUGGUAACGCGUUUCCCUCCUAAGGAGAAGACUGCGGGUUCGAGUCCCGUAUGGGGCG [G1A G6U C27U C66U A69G A70G]
-0.47

Here is the next variant: GGUCCGUUGGCGUAAUGGUAACGCGUUUCCCUCCUAAGGAGACGAUUGCGGGUUCGAGUCCCGUAAGGGUCG [U2G C27U A43C C46U C66A A69G A70U]
-0.175

Here is the next variant: AUUCCUUUGGCGUAAUGGUAACGCGUUUCCCUCCUAAGGAGAAGAUUGCGGGUUCGAGUCCCGUACGGAACG [G1A G6U C27U C46U]
-0.207

Here is the next variant: GGUCCGUUGGCGUAAUGGUAACGCGUUUCCCUCCUAAGGAGAAGACUGCGGGUUCGAGUCCCGUACGGGGCG [U2G C27U A69G A70G]
-0.217

Here is the next variant: AGUCCUUUGGCGUAAUGGUAACGCGUUUCCCUCCUAAGGAGACGACUGCGGGUUCGAGUCCCGUACGGAAUG [G1A U2G G6U C27U A43C C71U]
-0.329
